- Experiment summary: chemical genetic growth profiling, strain panel (AID 1159580);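 note: tested at 20 µM; growth read once vehicle control cultures reached saturation at 30 °C; 1 = growth at the plate median or of vehicle wells; lower values mean less growth of the strain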
- Setup conditions: S. cerevisiae deletion strains, growth OD, locus YOR290C, strain snf2, active compounds read low
Hit rate of the full screen: of about 5,500 compounds, about 2,000 (36%) were called active. Another 18% or so got no clear call; they are omitted. The list shows a part of the results. Where a SMILES comes first, the peptide text is derived from it. Bridges are numbered along the chain shown (N, C = ends). [ ]: non-standard residue; d: D form. The star is where a group is joined. Octanoyl(6-Me) = CCC(C)CCCCC(=O)*; Dab = NCC[CH](N)C(=O)O
Field: normalized growth. Provide a value for each of the molecules that follow.
One number for each entry.

Molecule	normalized growth
CC(=O)O[C@H]1CC[C@]2(C)C3CC(=O)[C@]4(C)C(C(C)=O)=CCC4C3CC[C@H]2C1 (stereo partly specified)	0.996
NC1C[C@H]1c1ccccc1 (stereo partly specified)	0.964
COc1cc(/C=C/C(=O)N2CCC=CC2=O)cc(OC)c1OC	0.969
COc1cc2c(cc1O)CCNC2C (stereo unspecified)	0.999
NCCc1cc(O)c(O)cc1O	0.948
O=c1[nH]cnc2c1ncn2C1O[C@H](CO)[C@@H](O)[C@H]1O (stereo partly specified)	1
COc1ccc(C2C(=O)c3ccccc3C2=O)cc1	1
CN1CCN(CCC=C2c3ccccc3Sc3ccc(S(=O)(=O)N(C)C)cc32)CC1	0.913

The following molecules each have a reported value; give each one's normalized growth.
1. CCC(C)CCCCC(=O)NC(CCN)C(=O)NC(C(=O)NC(CCN)C(=O)NC1CCNC(=O)C(C(C)O)NC(=O)C(CCN)NC(=O)C(CCN)NC(=O)C(CC(C)C)NC(=O)C(Cc2ccccc2)NC(=O)C(CCN)NC1=O)C(C)O (stereo unspecified) ({Octanoyl(6-Me)}-[Dab]T[Dab][Dab][Dab]FL[Dab][Dab]T; lactam 4-C; configuration not given here)
2. CC(=O)N[C@@H](Cc1c[nH]c2ccccc12)C(=O)O

Reply text:
[0.963, 0.974]

====

- Experiment summary: chemical genetic growth profiling, strain panel (AID 1159580);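 note: tested at 20 µM; growth read once vehicle control cultures reached saturation at 30 °C; 1 = growth at the plate median or of vehicle wells; lower values mean less growth of the strain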
- Setup conditions: S. cerevisiae deletion strains, growth OD, locus YMR307W, strain GAS1, active compounds read low
Out of some 5,500 compounds screened, about 2,000 (36%) were called active. Not shown: some 18% with an inconclusive outcome. The list shows a part of the results.
Readout kind: normalized growth
Numbers only.

Worked examples follow.
Compound	Recorded number
CC(=O)OCC(=O)[C@@]1(O)CCC2C3CC[C@@H]4C[C@H](OC(C)=O)CC[C@]4(C)C3C(=O)C[C@@]21C (stereo not given in full)	0.99
Cc1c(NC(=O)c2cccnc2)c(=O)n(-c2ccccc2)n1C	0.961
CC(=O)O[C@H]1CC[C@]2(C)C3CC[C@@]4(C)C(CC5O[C@@]6(CCC(C)CO6)[C@@H](C)C54)C3CC[C@@H]2C1 (stereo not given in full)	1.12
Nc1ncnc2c1ncn2[C@@H]1O[C@H](C(=O)NC2CC2)[C@H](O)C1O (stereo not given in full)	1.04

Now turn to the next compound.
Inquiry: What does the data say about its normalized growth? Entry: CCOC(=O)c1cnc2nc(SC)nn2c1N
Reply text: 0.909

====

- Experiment summary: chemical genetic growth profiling, strain panel (AID 1159580);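 note: tested at 20 µM; growth read once vehicle control cultures reached saturation at 30 °C; 1 = growth at the plate median or of vehicle wells; lower values mean less growth of the strain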
- Setup conditions: S. cerevisiae deletion strains, growth OD, locus YOR106W, strain vam3, active compounds read low
Hit rate of the full screen: of about 5,500 compounds, about 2,000 (36%) were called active. Another 18% or so got no clear call; they are omitted. The list shows a part of the results.
Entries whose normalized growth is below 1 take condition met; entries at or above 1 take condition not met.

Please review the following examples before continuing.
Molecule	Class name
C#C[C@]1(O)CCC2C3CCC4=Cc5oncc5C[C@]4(C)C3CC[C@@]21C (stereo not given in full)	condition met
NC[C@H]1O[C@H](O[C@H]2[C@H](O)[C@@H](O[C@H]3O[C@H](CO)[C@@H](O)[C@H](N)[C@H]3O)[C@H](N)C[C@@H]2N)[C@H](N)C[C@@H]1O	condition met
C#CC1(O)CCC2C3CCC4=CC(=O)CCC4(C)C3CCC21C (stereo not given)	condition met

Now look at this entry.
Inquiry: Please indicate whether the reported normalized growth of C[C@]12CCC(=O)C=C1CCC1C2[C@@H](O)C[C@@]2(C)C1CC[C@]2(O)C(=O)COC(=O)CCC(=O)O (stereo not given in full) is strictly below 1.
Reply text: condition not met
